biological target: ABL1 (64-515) (Homo sapiens (Human)); experiment: Radio ABL1 (64-515) radiometric filter-binding kinase assay; format: biochemical; conditions: 20 μM ATP
parameter_measured: pIC50
A value of pIC50 is the negative decimal logarithm of a concentration given in moles per litre.

Cc1cc(-c2cc(C(=O)Nc3ccc(OC(F)(F)Cl)cc3)ccc2N2C[C@H](N)[C@@H](O)C2)[nH]n1 [Example 84]
8.70

Now, please, on to the next compound.
Exam item: Which pIC50 is listed for CN(CCO)c1ncc(C(=O)Nc2ccc(OC(F)(F)Cl)cc2)cc1-c1ccn[nH]1 [Example 23] ?
Marked response: 8.57

###

target: ABL1 (64-515) (Homo sapiens (Human), UniProt P00519); assay: Caliper ABL1 (64-515) microfluidic mobility shift kinase assay; settings: read-out: Caliper ABL1 (64-515) IC50
Sequence (P00519 64-515): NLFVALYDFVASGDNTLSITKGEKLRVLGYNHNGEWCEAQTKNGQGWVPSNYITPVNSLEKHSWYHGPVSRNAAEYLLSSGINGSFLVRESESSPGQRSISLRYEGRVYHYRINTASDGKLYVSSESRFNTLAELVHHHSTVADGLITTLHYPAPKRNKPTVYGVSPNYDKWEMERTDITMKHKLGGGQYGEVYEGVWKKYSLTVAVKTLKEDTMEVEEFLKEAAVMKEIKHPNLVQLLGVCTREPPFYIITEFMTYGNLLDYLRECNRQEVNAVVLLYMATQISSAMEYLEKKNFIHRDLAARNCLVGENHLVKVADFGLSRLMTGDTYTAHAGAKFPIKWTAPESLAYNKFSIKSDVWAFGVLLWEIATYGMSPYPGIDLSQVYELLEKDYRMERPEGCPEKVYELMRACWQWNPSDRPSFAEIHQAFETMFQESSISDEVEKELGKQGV
Below, each of the molecules is paired with its reported IC50 value.
Give just the number in nM; leave the unit off.

Sample answers from the record:
O=C(Nc1ccc(OC(F)(F)F)cc1)c1cnc(N2CCOCC2)c(-c2ccn[nH]2)c1
6.5
O=C(Nc1ccc(OC(F)(F)Cl)cc1)c1cnc(NCCC(O)CO)c(-c2ccn[nH]2)c1 (stereo not shown)
6.6
O=C(Nc1ccc(OC(F)(F)Cl)cc1)c1cnc(N2CCCC3(CCN3)C2)c(-c2ccn[nH]2)c1 (stereo not shown)
4.5

Now, please, on to the next molecule.
Exam item: Which IC50 is listed for `O=C(Nc1ccc(OC(F)(F)F)cc1)c1cnc(N2CC[C@@H](O)C2)c(-c2cncs2)c1` ?
Marked response: 0.5

###

Below, each of the compounds is paired with its reported IC50 value.
molecular target: ABL1 (64-515) (Homo sapiens (Human), UniProt P00519); test: Caliper ABL1 (64-515) microfluidic mobility shift kinase assay; settings: read-out: Caliper ABL1 (64-515) IC50

Sample answers from the record:
NC[C@H]1CN(c2ncc(C(=O)Nc3ccc(OC(F)(F)Cl)cc3)cc2-c2ccn[nH]2)C[C@H]1O (relative stereo) [Example 80]
< 0.13 nM
O=C(Nc1ccc(OC(F)(F)Cl)cc1)c1cnc(N2CC[C@@H](O)C2)c(-c2ccc[nH]2)c1 [Example 22]
< 0.13 nM

Now, please, on to the next compound.
Exam item: Which IC50 is listed for O=C(Nc1ccc(OC(F)(F)Cl)cc1)c1cnc(N2CC3(CNC3)C2)c(-c2ccn[nH]2)c1 [Example 68] ?
Marked response: < 0.13 nM

Sourced from patent US9340537B2
